assay: Selectivity index, ratio of CC50 for human MT4 cells to EC50 for wild type HIV-1 3B infected in human MT4 cells; format: toxicity, cell-based; conditions: read-out: Ratio CC50/EC50
READOUT_KIND: selectivity ratio

RECORD_SMILES: CC(C)Nc1cccnc1N1CCN(C(=O)c2cc3cc(NS(C)(=O)=O)ccc3[nH]2)CC1
selectivity ratio: > 71

RECORD_SMILES: Cc1cn([C@H]2C[C@H](N=[N+]=[N-])[C@@H](CO)O2)c(=O)[nH]c1=O
selectivity ratio: > 12500

RECORD_SMILES: Cc1cccc(C)c1Nc1cc(Nc2ccc(C#N)cc2)ncc1[N+](=O)[O-]
selectivity ratio: < 1

Incoming: Note down selectivity ratio recorded for Cc1ccc(Nc2cc(Oc3c(C)cc(C#N)cc3C)c([N+](=O)[O-])cn2)cc1
Outgoing: < 1

Incoming: Note down selectivity ratio recorded for O=C1Nc2ccc(Cl)cc2[C@@](C#CC2CC2)(C(F)(F)F)O1
Outgoing: > 1110
